# assayed_system: recombinant BACE2 protein (Homo sapiens, UniProt Q9Y5Z0)
# Construct: recombinant BACE2 protein in a final concentration of 0.4 μg/mL
# protocol_description: BACE2 biochemical FRET based assay
# measurement_conditions: pH 5.0, 450 min at room temperature
For each entry below, report its pIC50 value.
The quantity pIC50 is defined as the negative base-10 logarithm of the molar concentration.

Query: Please supply the value of reported pIC50 for the item `C[C@@H](F)COc1cnc(C(=O)Nc2ccc(F)c([C@@]3(C)N=C(N)O[C@@H]4CO[C@@H](C(F)(F)F)[C@@H]43)c2)cn1`
Response: 5.00

Query: Please look at this compound and report its pIC50: `C[C@]1(c2cc(NC(=O)c3cnc(OCF)cn3)ccc2F)N=C(N)O[C@@H]2CO[C@@H](CC(F)F)[C@@H]21`
Response: 6.61

Query: Identify the reported pIC50 for the following entry. `NC1=N[C@](CF)(c2cc(NC(=O)c3cnc(OCF)cn3)ccc2F)[C@@H]2COCC[C@H]2O1`
Response: 6.75

Query: Output measured pIC50 for this item: `CC(C)C[C@@H]1OC[C@H]2OC(N)=N[C@](C)(c3cc(NC(=O)c4cnc(OCF)cn4)ccc3F)[C@@H]12`
Response: 6.23

* * *

Please go through the items and note down their hERG inhibition (%) at 3 μM.
# assayed_system: human ether-a-go-go related gene (hERG) channel (Homo sapiens, UniProt Q12809)
# Construct: expressed in transfected cells; host or cells: CHO cells
# Sequence (Q12809 whole entry): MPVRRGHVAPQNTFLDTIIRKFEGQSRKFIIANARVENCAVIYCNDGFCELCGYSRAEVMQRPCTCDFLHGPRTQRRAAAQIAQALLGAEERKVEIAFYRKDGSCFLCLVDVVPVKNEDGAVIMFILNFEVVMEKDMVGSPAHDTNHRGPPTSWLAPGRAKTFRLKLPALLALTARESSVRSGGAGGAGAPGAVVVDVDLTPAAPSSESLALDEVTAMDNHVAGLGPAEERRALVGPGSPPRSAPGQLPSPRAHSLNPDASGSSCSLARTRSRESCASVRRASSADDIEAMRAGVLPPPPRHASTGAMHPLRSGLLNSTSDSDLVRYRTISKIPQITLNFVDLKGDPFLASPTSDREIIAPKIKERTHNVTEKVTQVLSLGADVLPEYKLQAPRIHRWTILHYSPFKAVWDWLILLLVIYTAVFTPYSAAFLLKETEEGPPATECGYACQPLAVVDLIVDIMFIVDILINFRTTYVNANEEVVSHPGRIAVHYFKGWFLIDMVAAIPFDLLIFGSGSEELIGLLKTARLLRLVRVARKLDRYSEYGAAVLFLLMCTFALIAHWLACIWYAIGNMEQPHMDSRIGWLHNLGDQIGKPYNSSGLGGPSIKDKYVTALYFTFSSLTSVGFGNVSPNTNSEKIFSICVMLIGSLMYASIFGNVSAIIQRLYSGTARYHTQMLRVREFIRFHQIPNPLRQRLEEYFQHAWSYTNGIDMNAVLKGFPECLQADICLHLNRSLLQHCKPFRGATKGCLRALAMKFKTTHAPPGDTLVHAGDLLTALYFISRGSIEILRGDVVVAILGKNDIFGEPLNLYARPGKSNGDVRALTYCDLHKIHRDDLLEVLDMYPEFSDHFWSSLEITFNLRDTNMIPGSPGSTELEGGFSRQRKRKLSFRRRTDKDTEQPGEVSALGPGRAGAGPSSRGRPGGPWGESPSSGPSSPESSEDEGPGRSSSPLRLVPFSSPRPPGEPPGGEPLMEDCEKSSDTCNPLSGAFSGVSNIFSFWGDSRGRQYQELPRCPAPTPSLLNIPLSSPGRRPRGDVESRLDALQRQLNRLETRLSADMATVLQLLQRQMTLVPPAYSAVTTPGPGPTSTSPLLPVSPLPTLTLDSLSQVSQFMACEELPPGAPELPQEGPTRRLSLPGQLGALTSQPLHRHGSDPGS
# protocol_description: hERG test (whole cell patch clamp, QPatch)
# Format: cell-based
# measurement_conditions: CHO cells expressing hERG, tail peak current
State just the number; it will be interpreted in %.

Query: Read off the recorded hERG inhibition (%) at 3 μM for `C[C@@H]1OC[C@H]2[C@@H]1OC(N)=N[C@]2(CF)c1cc(NC(=O)c2cnc(OC(F)F)cn2)ccc1F`
Response: 28.7

Query: Return value of hERG inhibition (%) at 3 μM for input `C[C@@H]1OC[C@H]2[C@@H]1OC(N)=N[C@]2(CF)c1cc(NC(=O)c2cnc(OCF)cn2)ccc1F` , no commentary.
Response: 6.7

Query: Specify measured hERG inhibition (%) at 3 μM for `NC1=N[C@](CF)(c2cc(NC(=O)c3cnc(OCF)cn3)ccc2F)[C@H]2CO[C@@H](CF)[C@H]2O1` .
Response: 5

Query: Supply reported hERG inhibition (%) at 3 μM belonging to this compound: `CC1(C)OC[C@H]2[C@@H]1OC(N)=N[C@]2(CF)c1cc(NC(=O)c2cnc(OCF)cn2)ccc1F`
Response: 19.4

Query: Give the reported value of hERG inhibition (%) at 3 μM for this record: `C[C@H]1OC[C@H]2[C@@H]1OC(N)=N[C@]2(CF)c1cc(NC(=O)c2cnc(OCF)cn2)cc(F)c1F`
Response: 9.4

Query: Note down hERG inhibition (%) at 3 μM recorded for `NC1=N[C@](CF)(c2cc(NC(=O)c3cnc(OCF)cn3)ccc2F)[C@H]2[C@H](CCF)OC[C@H]2O1`
Response: 9.9

Query: Please look at this compound and report its hERG inhibition (%) at 3 μM: `NC1=N[C@](CF)(c2cc(NC(=O)c3cnc(OCF)cn3)ccc2F)[C@H]2[C@H](CF)OC[C@H]2O1`
Response: 12.4

Query: Give the measured hERG inhibition (%) at 3 μM for `NC1=N[C@](CF)(c2cc(NC(=O)c3cnc(OCF)cn3)ccc2F)[C@H]2[C@H](CC(F)F)OC[C@H]2O1`
Response: 33.9

* * *

Task for the reader: assign each of the following compounds its reported pIC50.
# assayed_system: recombinant BACE2 protein (Homo sapiens)
# Construct: recombinant BACE2 protein in a final concentration of 0.4 μg/mL
# Sequence (Q9Y5Z0 63-518): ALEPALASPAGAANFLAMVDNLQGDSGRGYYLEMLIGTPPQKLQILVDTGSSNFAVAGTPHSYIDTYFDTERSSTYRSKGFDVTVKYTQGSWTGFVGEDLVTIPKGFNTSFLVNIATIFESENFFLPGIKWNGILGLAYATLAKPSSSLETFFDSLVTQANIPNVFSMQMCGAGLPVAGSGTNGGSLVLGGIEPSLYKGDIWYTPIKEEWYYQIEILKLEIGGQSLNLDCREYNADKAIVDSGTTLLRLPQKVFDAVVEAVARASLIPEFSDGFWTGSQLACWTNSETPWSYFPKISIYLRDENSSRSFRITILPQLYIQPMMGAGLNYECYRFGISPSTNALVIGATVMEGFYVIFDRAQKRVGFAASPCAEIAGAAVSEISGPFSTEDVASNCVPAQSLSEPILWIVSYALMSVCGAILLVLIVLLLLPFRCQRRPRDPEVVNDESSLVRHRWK
# protocol_description: BACE2 biochemical FRET based assay
# measurement_conditions: pH 5.0, 450 min at room temperature
Answer as the number alone; pIC50 is minus log10 of concentration in mol/L.

Query: Please look at this compound and report its pIC50: `NC1=N[C@](CF)(c2cc(NC(=O)c3cnc(OCF)cn3)ccc2F)[C@H]2[C@H](CC(F)F)OC[C@H]2O1`
Response: 6.41

Query: Provide pIC50 value for the following compound: `C[C@]1(c2cc(NC(=O)c3ccc(C#N)cn3)ccc2F)N=C(N)O[C@@H]2CO[C@@H](CCF)[C@@H]21`
Response: 7.33

Query: Identify measured pIC50 associated with `C[C@]1(c2cc(NC(=O)c3ccc(C#N)cn3)ccc2F)N=C(N)O[C@@H]2CO[C@@H](C(F)(F)F)[C@@H]21`
Response: 6.45

Query: Please give the documented pIC50 of `CC(C)CCC[C@@H]1OC[C@H]2OC(N)=N[C@](C)(c3cc(NC(=O)c4cnc(OCF)cn4)ccc3F)[C@@H]12`
Response: 7.93

Query: Dear colleague, please send me the reported pIC50 for `C[C@H]1OC[C@H]2[C@@H]1OC(N)=N[C@]2(CF)c1cc(NC(=O)c2cnc(-n3cncn3)cn2)ccc1F` when you can.
Response: 6.50

Query: Return pIC50 for the following compound: `C[C@]1(c2cc(NC(=O)c3ccc(C#N)cn3)ccc2F)N=C(N)O[C@@H]2CO[C@@H](CC(F)F)[C@@H]21`
Response: 7.34

Query: Read off the recorded pIC50 for `CC(C)C[C@@H]1OC[C@H]2OC(N)=N[C@](C)(c3cc(NC(=O)c4cnc(OC[C@@H](C)F)cn4)ccc3F)[C@@H]12`
Response: 5.36

Query: Fill in reported pIC50 for this entry: `Cc1noc(C)c1[C@@H]1OC[C@H]2OC(N)=N[C@](C)(c3cc(NC(=O)c4cnc(OCF)cn4)ccc3F)[C@H]21`
Response: 5.47

Query: Given the compound `Cn1cc([C@@H]2OC[C@H]3OC(N)=N[C@](C)(c4cc(NC(=O)c5cnc(OCF)cn5)ccc4F)[C@H]32)cn1` , write its reported pIC50.
Response: 5.00

Query: Quickly give me recorded pIC50 for `C[C@]1(c2cc(NC(=O)c3cnc(OCF)cn3)ccc2F)N=C(N)O[C@@H]2CO[C@@H](C(F)F)[C@@H]21`
Response: 6.18

Query: For the compound `C[C@@H]1OC[C@H]2[C@@H]1OC(N)=N[C@]2(CF)c1cc(NC(=O)c2cnc(OCF)cn2)ccc1F` , give its measured pIC50 value.
Response: 6.51

Query: Assign pIC50 to the following record: `C[C@]1(c2cc(NC(=O)c3cnc(OCF)cn3)ccc2F)N=C(N)O[C@@H]2CO[C@@H](CCF)[C@@H]21`
Response: 6.50

Query: Give the reported pIC50 for this compound. `CC[C@@H]1OC[C@H]2OC(N)=N[C@](C)(c3cc(NC(=O)c4cnc(OCF)cn4)ccc3F)[C@@H]12`
Response: 6.61

* * *

# assayed_system: P-gp (MDR1 expressing LLC-PK1 cells) (Homo sapiens, UniProt P08183)
# Construct: host or cells: LLC-PK1 (porcine kidney) cells
# Sequence (P08183 whole entry): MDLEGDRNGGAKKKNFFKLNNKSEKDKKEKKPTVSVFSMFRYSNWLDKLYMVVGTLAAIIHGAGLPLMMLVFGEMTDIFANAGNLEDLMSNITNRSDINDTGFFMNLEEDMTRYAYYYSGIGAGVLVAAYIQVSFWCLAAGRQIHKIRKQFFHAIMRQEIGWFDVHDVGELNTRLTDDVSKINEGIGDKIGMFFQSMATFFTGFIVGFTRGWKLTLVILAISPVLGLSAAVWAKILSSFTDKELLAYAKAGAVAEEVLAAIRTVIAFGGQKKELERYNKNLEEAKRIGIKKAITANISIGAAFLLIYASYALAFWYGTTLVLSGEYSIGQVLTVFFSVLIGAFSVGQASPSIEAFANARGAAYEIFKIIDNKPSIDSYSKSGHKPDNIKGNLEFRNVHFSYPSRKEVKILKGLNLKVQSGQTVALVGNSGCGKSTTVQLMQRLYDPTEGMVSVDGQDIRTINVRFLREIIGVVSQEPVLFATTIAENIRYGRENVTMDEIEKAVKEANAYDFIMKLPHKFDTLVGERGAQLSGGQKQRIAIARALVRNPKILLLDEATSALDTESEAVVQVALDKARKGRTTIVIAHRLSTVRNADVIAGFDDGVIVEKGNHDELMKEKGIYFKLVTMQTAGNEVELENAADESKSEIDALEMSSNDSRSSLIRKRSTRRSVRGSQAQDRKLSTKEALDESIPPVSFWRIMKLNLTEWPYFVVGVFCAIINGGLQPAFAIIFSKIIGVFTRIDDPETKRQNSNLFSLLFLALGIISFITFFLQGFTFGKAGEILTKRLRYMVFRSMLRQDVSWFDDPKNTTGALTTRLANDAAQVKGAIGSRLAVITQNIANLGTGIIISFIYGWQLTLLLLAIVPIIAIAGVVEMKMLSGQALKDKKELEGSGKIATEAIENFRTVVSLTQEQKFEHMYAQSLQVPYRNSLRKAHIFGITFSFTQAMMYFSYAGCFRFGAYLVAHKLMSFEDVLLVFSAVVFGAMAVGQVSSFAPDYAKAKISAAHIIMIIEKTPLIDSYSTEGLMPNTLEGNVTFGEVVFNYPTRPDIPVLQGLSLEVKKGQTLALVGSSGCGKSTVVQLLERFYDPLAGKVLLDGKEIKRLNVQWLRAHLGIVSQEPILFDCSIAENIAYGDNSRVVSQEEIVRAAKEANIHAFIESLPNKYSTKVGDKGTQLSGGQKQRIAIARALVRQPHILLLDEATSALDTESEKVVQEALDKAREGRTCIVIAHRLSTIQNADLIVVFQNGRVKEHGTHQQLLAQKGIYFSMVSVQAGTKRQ
# protocol_description: P-gp substrate test
# Assay type: in vitro ADME
# measurement_conditions: MDR1 expressing LLC-PK1 cells vs parent LLC-PK1 cells
Note to self: P-gp ER ratio under 4 means Satisfied, ties and anything higher get Not satisfied.

Query: Is 4 strictly greater than the molecule's reported P-gp ER ratio? molecule: C[C@@H]1OC[C@H]2[C@@H]1OC(N)=N[C@]2(CF)c1cc(NC(=O)c2cnc(OCF)cn2)ccc1F [Compound I-082]
Response: Satisfied

Query: Criterion: P-gp ER ratio strictly below 4. Is it met by NC1=N[C@](CF)(c2cc(NC(=O)c3cnc(OCF)cn3)ccc2F)[C@H]2CO[C@@H](CF)[C@H]2O1 [Compound I-112] ?
Response: Not satisfied

Query: A record lists NC1=N[C@](CF)(c2cc(NC(=O)c3cnc(OCF)cn3)ccc2F)[C@H]2[C@H](CF)OC[C@H]2O1 [Compound I-114] . Is its P-gp ER ratio below 4?
Response: Satisfied

Query: Is 4 strictly greater than the molecule's reported P-gp ER ratio? molecule: NC1=N[C@](CF)(c2cc(NC(=O)c3cnc(OCF)cn3)ccc2F)[C@H]2[C@H](CCF)OC[C@H]2O1 [Compound I-115]
Response: Satisfied

Query: Please indicate whether the reported P-gp ER ratio of C[C@@H]1OC[C@H]2[C@@H]1OC(N)=N[C@]2(CF)c1cc(NC(=O)c2cnc(OC(F)F)cn2)ccc1F [Compound I-087] is strictly below 4.
Response: Not satisfied

Query: For this molecule, is P-gp ER ratio lower than 4? CC1(C)OC[C@H]2[C@@H]1OC(N)=N[C@]2(CF)c1cc(NC(=O)c2cnc(OCF)cn2)ccc1F [Compound I-096]
Response: Satisfied

Query: Lab note: P-gp ER ratio threshold 4. Does this molecule come in strictly under it? NC1=N[C@](CF)(c2cc(NC(=O)c3cnc(OCF)cn3)ccc2F)[C@H]2[C@H](CC(F)F)OC[C@H]2O1 [Compound I-116]
Response: Not satisfied

Query: Is 4 strictly greater than the molecule's reported P-gp ER ratio? molecule: C[C@H]1OC[C@H]2[C@@H]1OC(N)=N[C@]2(CF)c1cc(NC(=O)c2cnc(OCF)cn2)cc(F)c1F [Compound I-070]
Response: Satisfied
